# Test system: 317291-083-R-J1-PDC complex spheroids, viability
# Protocol details: Anticancer human tumor 317291-083-R-J1-PDC patient-derived soft tissue sarcoma cell line growth inhibition [GQUAD]
# Run parameters: second compound 0.316 µM; first compound 0.316 µM; stronger effect = lower value
Attribute measured: viability, T/C (%)

INSERT INTO results (compound, attribute_measured, val) VALUES
  ('Cc1cccc(N(C)C(=O)C2C(O)CCN2c2nc(C)cc(C(F)(F)F)c2C#N)c1 (centres undefined) + Cc1cnc(CNC(=O)c2c(=O)c3ccc(N4CCCN(C)CC4)nc3n3c2sc2ccccc23)cn1', 'viability, T/C', 48),
  ('COc1cc(C2c3cc4c(cc3C(OC3OC5COC(C)OC5C(O)C3O)C3COC(=O)C23)OCO4)cc(OC)c1O (centres undefined) + Cc1cnc(CNC(=O)c2c(=O)c3ccc(N4CCCN(C)CC4)nc3n3c2sc2ccccc23)cn1', 'viability, T/C', 19.3),
  ('CCc1c2c(nc3ccc(O)cc13)-c1cc3c(c(=O)n1C2)COC(=O)[C@]3(O)CC + Cc1[nH]c2ccc(F)cc2c1-c1nc2c3cccnc3c3ncccc3c2[nH]1', 'viability, T/C', 4.87),
  ('Cn1ncnc1[C@H]1c2n[nH]c(=O)c3cc(F)cc(c23)N[C@@H]1c1ccc(F)cc1 + CN(C)c1ccc(Nc2c3ccc(NC(=O)CCN4CCCC4)cc3nc3cc(NC(=O)CCN4CCCC4)ccc23)cc1', 'viability, T/C', 44.6),
  ('O=c1[nH]cc(F)c(=O)[nH]1 + Cc1[nH]c2ccc(F)cc2c1-c1nc2c3cccnc3c3ncccc3c2[nH]1', 'viability, T/C', 89.1),
  ('COc1cc(C2c3cc4c(cc3C(OC3OC5COC(C)OC5C(O)C3O)C3COC(=O)C23)OCO4)cc(OC)c1O (centres undefined) + CN(C)c1ccc(Nc2c3ccc(NC(=O)CCN4CCCC4)cc3nc3cc(NC(=O)CCN4CCCC4)ccc23)cc1', 'viability, T/C', 46.8),
  ('CC1COCCN1c1cc(C2(O)CC3CCC(C2)O3)c2cnn(-c3ccn[nH]3)c2n1 (centres undefined) + Cc1[nH]c2ccc(F)cc2c1-c1nc2c3cccnc3c3ncccc3c2[nH]1', 'viability, T/C', 14.8),
  ('O=C(c1cc(Cc2n[nH]c(=O)c3ccccc23)ccc1F)N1CCN(C(=O)C2CC2)CC1 + Cc1cnc(CNC(=O)c2c(=O)c3ccc(N4CCCN(C)CC4)nc3n3c2sc2ccccc23)cn1', 'viability, T/C', 57.1),
  ('C=CCn1c(=O)c2cnc(Nc3ccc(N4CCN(C)CC4)cc3)nc2n1-c1cccc(C(C)(C)O)n1 + CN(C)c1ccc(Nc2c3ccc(NC(=O)CCN4CCCC4)cc3nc3cc(NC(=O)CCN4CCCC4)ccc23)cc1', 'viability, T/C', 14.4);

###

# Tested on: 317291-083-R-J1-PDC complex spheroids, viability
# Protocol details: Anticancer human tumor 317291-083-R-J1-PDC cell line growth inhibition [GQUAD];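 note: spheroids exposed to compounds for one week before readout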
# Run parameters: curve of first compound; second compound 1 µM
# IC50 values compiled below
Attribute measured: IC50

INSERT INTO measurements (compound, val) VALUES
  ('CC[C@@]1(O)C(=O)OCc2c1cc1n(c2=O)Cc2cc3c(CN(C)C)c(O)ccc3nc2-1 + CN(C)c1ccc(Nc2c3ccc(NC(=O)CCN4CCCC4)cc3nc3cc(NC(=O)CCN4CCCC4)ccc23)cc1', '< 0.999 nM'),
  ('Cn1ncnc1[C@H]1c2n[nH]c(=O)c3cc(F)cc(c23)N[C@@H]1c1ccc(F)cc1 + Cc1cnc(CNC(=O)c2c(=O)c3ccc(N4CCCN(C)CC4)nc3n3c2sc2ccccc23)cn1', '< 0.999 nM'),
  ('O=c1[nH]cc(F)c(=O)[nH]1 + Cc1cnc(CNC(=O)c2c(=O)c3ccc(N4CCCN(C)CC4)nc3n3c2sc2ccccc23)cn1', '< 31.6 nM'),
  ('CC(=O)O[C@H]1C(=O)[C@@]2(C)[C@H]([C@H](OC(=O)c3ccccc3)[C@]3(O)C[C@H](OC(=O)[C@H](O)[C@@H](NC(=O)c4ccccc4)c4ccccc4)C(C)=C1C3(C)C)[C@]1(OC(C)=O)CO[C@@H]1C[C@@H]2O + Cc1[nH]c2ccc(F)cc2c1-c1nc2c3cccnc3c3ncccc3c2[nH]1', '< 31.6 nM'),
  ('COc1ccc([C@@H](O)c2cc(-c3ncnc4cc(N5CCOCC5)ccc34)c(F)cc2Cl)nn1 + Cc1cnc(CNC(=O)c2c(=O)c3ccc(N4CCCN(C)CC4)nc3n3c2sc2ccccc23)cn1', '< 31.6 nM'),
  ('O=C(NO)c1cnc(N2CCN(S(=O)(=O)c3ccc4ccccc4c3)CC2)nc1 + CN(C)c1ccc(Nc2c3ccc(NC(=O)CCN4CCCC4)cc3nc3cc(NC(=O)CCN4CCCC4)ccc23)cc1', '< 31.6 nM'),
  ('CC[C@@]1(O)C(=O)OCc2c1cc1n(c2=O)Cc2cc3c(CN(C)C)c(O)ccc3nc2-1 + Cc1cnc(CNC(=O)c2c(=O)c3ccc(N4CCCN(C)CC4)nc3n3c2sc2ccccc23)cn1', '< 0.999 nM');
